# studySystem: human insulin receptor (INSR) on CHOK1 cells (human, UniProt P06213 28-1382)
# methodNotes: cell-based or functional assay
Measured EC50 (nM), pAKT signaling assay, listed per entry.
Entry rule: numbers only, all in nM.

# count of solved cases: 3
>  <binder>
XPA.15.247.2.014 Fab (Fab, V domains shown, Fab; also called XPA.15.247.014) VH: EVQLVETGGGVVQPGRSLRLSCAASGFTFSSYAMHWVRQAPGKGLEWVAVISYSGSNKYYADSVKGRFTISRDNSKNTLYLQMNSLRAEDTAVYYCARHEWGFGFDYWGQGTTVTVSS VL: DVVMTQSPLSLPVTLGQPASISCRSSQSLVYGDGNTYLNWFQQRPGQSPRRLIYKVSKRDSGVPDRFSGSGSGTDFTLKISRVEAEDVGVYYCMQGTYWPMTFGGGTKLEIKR

>  <unitAbbreviation>
nM

>  <EC50 (nM), pAKT signaling assay>
9.6

$$$$
>  <binder>
XPA.15.247 Fab (Fab, V domains shown, Monomeric Fab; also called Fab247; XPA.15.247 parent Fab) VH: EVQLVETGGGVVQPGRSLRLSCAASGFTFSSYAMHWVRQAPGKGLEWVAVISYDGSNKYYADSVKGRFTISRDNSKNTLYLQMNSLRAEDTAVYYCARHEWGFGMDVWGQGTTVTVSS VL: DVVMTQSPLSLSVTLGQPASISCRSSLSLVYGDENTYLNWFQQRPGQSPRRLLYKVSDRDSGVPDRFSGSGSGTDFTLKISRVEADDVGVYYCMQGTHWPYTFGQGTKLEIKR

>  <unitAbbreviation>
nM

>  <EC50 (nM), pAKT signaling assay>
44

$$$$
>  <binder>
XPA.15.247 parent antibody (IgG) (antibody, V domains shown, Tested as IgG; also called XPA.15.247 antibody) VH: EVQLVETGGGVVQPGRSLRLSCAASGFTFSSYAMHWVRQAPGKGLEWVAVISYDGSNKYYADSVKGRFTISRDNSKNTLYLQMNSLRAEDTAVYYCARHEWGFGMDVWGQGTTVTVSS VL: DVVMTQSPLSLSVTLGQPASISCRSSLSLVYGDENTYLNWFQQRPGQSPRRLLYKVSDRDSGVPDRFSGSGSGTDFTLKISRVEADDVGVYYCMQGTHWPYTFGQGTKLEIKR

>  <unitAbbreviation>
nM

>  <EC50 (nM), pAKT signaling assay>
34.5

$$$$

[Q] For the binder XPA.15.247.2.011 IgG (antibody, V domains shown, Tested as IgG; also called XPA.15.247.011) VH: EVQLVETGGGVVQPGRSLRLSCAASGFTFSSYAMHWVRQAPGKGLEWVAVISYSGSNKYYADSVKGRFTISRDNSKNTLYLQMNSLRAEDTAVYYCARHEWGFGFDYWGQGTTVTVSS VL: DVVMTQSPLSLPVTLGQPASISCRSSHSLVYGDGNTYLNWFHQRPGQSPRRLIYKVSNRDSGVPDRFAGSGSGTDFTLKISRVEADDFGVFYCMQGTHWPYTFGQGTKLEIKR , give its reported EC50 (nM), pAKT signaling assay.
[A] 1.5

[Q] For the binder XPA.15.247.2.018 IgG (antibody, V domains shown, Tested as IgG; also called XPA.15.247.2.018 antibody) VH: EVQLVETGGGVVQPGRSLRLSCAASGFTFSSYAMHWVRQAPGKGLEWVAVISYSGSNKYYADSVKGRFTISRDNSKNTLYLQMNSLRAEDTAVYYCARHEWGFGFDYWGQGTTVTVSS VL: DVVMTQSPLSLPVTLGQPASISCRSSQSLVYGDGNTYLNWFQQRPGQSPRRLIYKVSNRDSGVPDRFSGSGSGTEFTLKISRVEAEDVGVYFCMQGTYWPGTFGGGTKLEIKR , give its reported EC50 (nM), pAKT signaling assay.
[A] 0.3

Attribution: patent US20180251562A1
